Target: T1, protein phosphatase 5 (PP5), human, full-length (human, UniProt P53041 1-499)
T1 construct: protein phosphatase 5 (PP5), human, full-length, expressed from a pMCSG7 vector; source: E. coli BL21 (DE3), purified (Ni-NTA, TEV cleavage, size-exclusion chromatography); not shown: His-tag, N-terminal, cleaved
T1 sequence (looked up): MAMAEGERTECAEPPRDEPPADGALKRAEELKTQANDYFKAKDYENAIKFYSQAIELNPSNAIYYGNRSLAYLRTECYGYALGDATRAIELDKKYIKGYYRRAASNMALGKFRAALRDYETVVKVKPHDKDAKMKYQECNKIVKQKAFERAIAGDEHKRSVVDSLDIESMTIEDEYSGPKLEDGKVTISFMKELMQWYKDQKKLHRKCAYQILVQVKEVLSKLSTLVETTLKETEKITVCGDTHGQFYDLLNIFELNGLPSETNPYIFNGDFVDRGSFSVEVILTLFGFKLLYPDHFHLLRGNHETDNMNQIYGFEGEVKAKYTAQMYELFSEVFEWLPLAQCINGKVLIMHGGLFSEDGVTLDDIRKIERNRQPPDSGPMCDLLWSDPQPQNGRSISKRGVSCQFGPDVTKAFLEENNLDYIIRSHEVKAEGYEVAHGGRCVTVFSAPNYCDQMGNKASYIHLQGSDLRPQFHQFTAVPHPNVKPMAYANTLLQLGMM
Assay: fluorescence polarisation; saturation binding: tracer 20 nM, 3-fold dilution series of PP5; 50 mM Hepes, 75 mM NaCl, 0.001% Triton X-100, pH 7.4; room temperature, 15 min
Conditions: both partners purified
Primed or numbered codes have the meaning given here. Where no end group is shown, it is not given here. 5FAM′ = 5-carboxyfluorescein; Ahx = NCCCCCC(=O)O

# binder, relation.qualifier, Kd [nM]
measured = [
    ("{5FAM′-Ahx}-WEEVD (also called WEEVD tracer; source: synthetic peptide) [fluorescent tracer 5FAM-AHX-WEEVD]", "=", 15),
    ("{5FAM′-Ahx}-WDDVD (also called WDDVD tracer; source: synthetic peptide) [fluorescent tracer 5FAM-AHX-WDDVD]", "=", 17),
    ("{5FAM′-Ahx}-LSLLD (C-terminal five amino acids of elongator acetyltransferase complex subunit 1 (ELP1; IKBKAP); also called LSLLD tracer; source: synthetic peptide) [ELP1 tracer 5FAM-AHX-LSLLD]", "=", 4400),
    ("WKPVD (also: fluorescent label (tracer), position not given here, the label DDCP could not be tied to an entry; Probably 5FAM-AHX-labelled like the ELP1 tracer; also called DDCP tracer; source: synthetic peptide) [fluorescent tracer of the DDCP C-terminal sequence WKPVD]", ">", 100000),
    ("{5FAM′-Ahx}-IEEVD (also called Hsp70 IEEVD tracer; source: synthetic peptide, custom synthesized by GenScript) [Hsp70 tracer 5FAM-AHX-IEEVD]", "=", 941),
    ("TMYFA (fluorescent label (tracer)) [fluorescent tracer of the AGO1 C-terminal five amino acids (negative control)]", ">", 100000),
    ("DSDSD (fluorescent label (tracer)) [fluorescent tracer of the U520 C-terminal five amino acids]", ">", 100000),
]

Provenance of the data: paper PMC11259706
